assay: Particle size, PdI and zeta potential of mRNA-encapsulating LNPs by dynamic light scattering; assay type: physicochemical; settings: FLuc mRNA-encapsulating LNP, cationic lipid:DOPC:Chol=55:5:40 + about 1 mol DMG-PEG2k; physiological pH
METRIC NAME: zeta potential
Note: state the figure and append the unit.

A selection of reference data follows.
MOLECULE	OBSERVED MEASUREMENT
CCCCCCCC/C=C\CCCCCCCC(=O)Oc1ccc(CC(=O)OCCOC(=O)C(CSSCC(NC(=O)CN(CCC)CCC)C(=O)OCCOC(=O)Cc2ccc(OC(=O)CCCCCCC/C=C\CCCCCCCC)cc2)NC(=O)CN(CCC)CCC)cc1 (stereo not drawn)	−12.4 mV
CCCCCCCC/C=C\CCCCCCCC(=O)Oc1ccc(CC(=O)OCCOC(=O)C(CSSCC(NC(=O)CN(C)CCC)C(=O)OCCOC(=O)Cc2ccc(OC(=O)CCCCCCC/C=C\CCCCCCCC)cc2)NC(=O)CN(C)CCC)cc1 (stereo not drawn)	−11.2 mV
CCCCCCCC/C=C\CCCCCCCC(=O)Oc1ccc(CC(=O)OCCOC(=O)C(CSSCC(NC(=O)CN(CC)CC)C(=O)OCCOC(=O)Cc2ccc(OC(=O)CCCCCCC/C=C\CCCCCCCC)cc2)NC(=O)CN(CC)CC)cc1 (stereo not drawn)	−7.78 mV

Dear colleague, I am looking for the recorded zeta potential of the following molecule: CCCCCCCC/C=C\CCCCCCCC(=O)Oc1ccc(CC(=O)OCCOC(=O)C(CSSCC(NC(=O)CN2CCCCC2)C(=O)OCCOC(=O)Cc2ccc(OC(=O)CCCCCCC/C=C\CCCCCCCC)cc2)NC(=O)CN2CCCCC2)cc1 (stereo not drawn)
−10.3 mV

Record: CCCCCCCC/C=C\CCCCCCCC(=O)Oc1ccc(CC(=O)OCCOC(=O)C(CSSCC(NC(=O)CN(C)C)C(=O)OCCOC(=O)Cc2ccc(OC(=O)CCCCCCC/C=C\CCCCCCCC)cc2)NC(=O)CN(C)C)cc1 (stereo not drawn)
0.01 mV

Then what about the molecule CCCCCCCC/C=C\CCCCCCCC(=O)Oc1ccc(CC(=O)OCCOC(=O)C(CSSCC(NC(=O)CN(C)CC)C(=O)OCCOC(=O)Cc2ccc(OC(=O)CCCCCCC/C=C\CCCCCCCC)cc2)NC(=O)CN(C)CC)cc1 (stereo not drawn) ?
−5.02 mV
